Quick list: pIC50 per entry.
# target_desc: human α1G T-type channels (Homo sapiens, UniProt O43497)
# Construct: expressed in transfected cells; host or cells: HEK cell lines
# Sequence (O43497 whole entry): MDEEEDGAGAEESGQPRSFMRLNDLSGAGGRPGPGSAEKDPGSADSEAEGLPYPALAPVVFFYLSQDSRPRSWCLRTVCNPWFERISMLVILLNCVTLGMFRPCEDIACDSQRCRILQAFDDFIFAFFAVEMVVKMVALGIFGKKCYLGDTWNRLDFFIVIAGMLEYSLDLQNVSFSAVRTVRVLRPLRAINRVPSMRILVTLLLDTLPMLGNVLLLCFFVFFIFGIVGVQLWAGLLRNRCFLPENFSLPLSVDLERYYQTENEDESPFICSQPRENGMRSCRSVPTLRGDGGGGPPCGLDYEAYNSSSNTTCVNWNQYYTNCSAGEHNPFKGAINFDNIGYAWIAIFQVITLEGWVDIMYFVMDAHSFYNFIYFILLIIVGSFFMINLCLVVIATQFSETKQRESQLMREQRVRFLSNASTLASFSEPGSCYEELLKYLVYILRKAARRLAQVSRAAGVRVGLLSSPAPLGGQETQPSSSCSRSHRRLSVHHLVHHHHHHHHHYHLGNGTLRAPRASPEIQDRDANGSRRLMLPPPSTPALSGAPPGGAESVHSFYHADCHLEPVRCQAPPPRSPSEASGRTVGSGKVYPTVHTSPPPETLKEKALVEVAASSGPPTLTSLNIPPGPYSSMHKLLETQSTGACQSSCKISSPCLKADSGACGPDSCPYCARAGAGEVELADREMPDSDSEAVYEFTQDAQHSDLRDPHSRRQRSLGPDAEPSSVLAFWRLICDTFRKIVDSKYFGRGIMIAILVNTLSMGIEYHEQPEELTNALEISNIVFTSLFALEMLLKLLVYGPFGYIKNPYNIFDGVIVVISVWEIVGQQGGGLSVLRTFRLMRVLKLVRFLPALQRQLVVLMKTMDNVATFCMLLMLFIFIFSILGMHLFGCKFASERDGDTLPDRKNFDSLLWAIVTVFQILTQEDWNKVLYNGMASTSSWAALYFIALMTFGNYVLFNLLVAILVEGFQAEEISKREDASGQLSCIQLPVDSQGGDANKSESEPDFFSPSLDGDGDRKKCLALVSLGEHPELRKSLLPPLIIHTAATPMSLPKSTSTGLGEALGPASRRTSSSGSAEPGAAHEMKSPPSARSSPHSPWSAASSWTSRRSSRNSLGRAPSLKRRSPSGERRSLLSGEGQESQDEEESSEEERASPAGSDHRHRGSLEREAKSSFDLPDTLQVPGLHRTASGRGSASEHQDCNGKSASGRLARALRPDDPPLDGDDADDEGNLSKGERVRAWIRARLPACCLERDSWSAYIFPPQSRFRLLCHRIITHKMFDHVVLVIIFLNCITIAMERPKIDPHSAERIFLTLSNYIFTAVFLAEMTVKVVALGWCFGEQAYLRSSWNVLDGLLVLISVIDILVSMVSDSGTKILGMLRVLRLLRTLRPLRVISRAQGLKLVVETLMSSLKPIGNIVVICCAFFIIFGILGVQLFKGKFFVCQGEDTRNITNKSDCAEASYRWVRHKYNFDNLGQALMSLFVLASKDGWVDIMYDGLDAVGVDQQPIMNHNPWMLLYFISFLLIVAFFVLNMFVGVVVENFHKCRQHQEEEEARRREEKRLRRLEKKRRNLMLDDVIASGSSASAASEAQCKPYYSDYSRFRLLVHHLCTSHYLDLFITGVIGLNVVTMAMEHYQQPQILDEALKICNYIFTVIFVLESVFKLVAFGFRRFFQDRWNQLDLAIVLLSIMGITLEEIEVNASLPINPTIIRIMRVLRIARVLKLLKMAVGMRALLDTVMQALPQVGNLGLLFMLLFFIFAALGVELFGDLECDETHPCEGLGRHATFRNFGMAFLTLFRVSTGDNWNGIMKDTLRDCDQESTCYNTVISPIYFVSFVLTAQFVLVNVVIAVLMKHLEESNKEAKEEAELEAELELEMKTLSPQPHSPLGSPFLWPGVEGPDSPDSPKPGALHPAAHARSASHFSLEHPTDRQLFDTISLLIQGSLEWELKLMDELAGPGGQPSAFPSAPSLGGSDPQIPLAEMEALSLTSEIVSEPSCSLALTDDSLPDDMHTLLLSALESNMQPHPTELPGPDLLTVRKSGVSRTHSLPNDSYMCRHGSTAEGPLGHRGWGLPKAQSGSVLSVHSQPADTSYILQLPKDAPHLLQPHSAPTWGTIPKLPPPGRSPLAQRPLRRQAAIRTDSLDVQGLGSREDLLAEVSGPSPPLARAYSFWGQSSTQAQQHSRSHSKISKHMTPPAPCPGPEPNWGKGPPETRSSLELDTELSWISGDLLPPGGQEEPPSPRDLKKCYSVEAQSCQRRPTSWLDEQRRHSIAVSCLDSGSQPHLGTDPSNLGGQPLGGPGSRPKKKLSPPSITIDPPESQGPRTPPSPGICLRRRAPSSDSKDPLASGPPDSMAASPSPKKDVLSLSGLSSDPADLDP
# protocol: T-type calcium channel block, patch clamp in HEK cell lines
# Assay type: cell-based
# test_settings: −80 mV (inactivation protocol, voltage-dependent block); read-out: IC50 @ −80 mV
pIC50: −log10 of the molar value.

| compound | pIC50 |
| --- | --- |
| COc1c(C(C)(C)C)cc(C(=O)NC/C=C/CNC(=O)CCCCC(c2ccc(F)cc2)c2ccc(F)cc2)cc1C(C)(C)C [Compound P12] | 7.47 |
| O=C(CCCCC(c1ccc(F)cc1)c1ccc(F)cc1)NC/C=C/CNC(=O)c1ccc(Cl)cc1 [Compound P18] | 7.41 |
| CC(C)c1ccc(C(=O)NCC#CCNC(=O)CCCCC(c2ccc(F)cc2)c2ccc(F)cc2)cc1 [Compound P25] | 6.37 |
| O=C(CCCCC(c1ccc(F)cc1)c1ccc(F)cc1)NCC#CCNC(=O)c1ccc(F)cc1 [Compound P29] | 7.00 |
| O=C(CCCCC(c1ccc(F)cc1)c1ccc(F)cc1)NC/C=C\CNC(=O)c1ccc(F)cc1 [Compound P10] | 8.22 |
| O=C(CC(c1ccccc1)c1ccccc1)NCC#CCN(Cc1ccncc1)Cc1ccncc1 [Compound P30] | 7.68 |
